Value source: PubChem BioAssay (NCI)

growth inhibition values by entry
test: NCI Yeast Anticancer Drug Screen. Data for the mec2-1 strain (AID 157); conditions: S. cerevisiae mec2-1 strain, at 50.0 µM (retest, dose inferred, filed as 5.0), hits give high values
About 79,000 compounds went through this panel and 15% of them were active in at least one assay; those are over-represented in the sample as a whole.
Entry rule: numbers only, all in %.

Example entries begin here.
{"columns": ["compound", "quantity measured", "output unit", "measured result"],
 "data": [
  ["CCCCCCN(CCCCCC)CCCCCCCCCCCO", "growth inhibition", "%", 98],
  ["CSC(SC)=C(C#N)C(=O)Nc1cccc(Cl)c1", "growth inhibition", "%", 99],
  ["N=C(N)Sc1cccc[n+]1[O-]", "growth inhibition", "%", 99],
  ["CC1=CC[C@@H]2[C@@H](CC[C@@]2(C)O)C(C)(C)[C@H]1CC[C@@H]1[C@@]2(C)CCC(=O)C(C)(C)O[C@@H]2CC[C@]1(C)O", "growth inhibition", "%", 37],
  ["CCOc1ccc(C(C[N+](=O)[O-])Sc2ccccc2N)cc1 (stereo not drawn)", "growth inhibition", "%", 46],
  ["N=C1C(=N)c2ccccc2-c2ccccc21", "growth inhibition", "%", 100],
  ["Oc1ccc(Br)cc1Sc1cc(Br)ccc1O", "growth inhibition", "%", 99],
  ["O=C1C=CC(=O)N1c1ccccc1", "growth inhibition", "%", 99]
]}

Need growth inhibition, item O/N=C1\c2ccccc2-c2ccc(F)cc21
73

# growth inhibition lookup, item CC1=CC(=O)C=CC1(C)C(Cl)(Cl)Cl (stereo not drawn)
-12

Value lookup for growth inhibition; key = Oc1ccc2c(c1)CCc1ccccc1-2
98

What value of growth inhibition has been reported for the following compound? CCCCCCCCCCCC1N=C(N)N=C(N)N1c1cccc(Br)c1 (stereo not drawn)
97

What value of growth inhibition has been reported for the following compound? CNc1ncnc2nc(C)[nH]c12
3

* * *

assay: NCI Yeast Anticancer Drug Screen. Data for the sgs1 mgt1 strain (AID 161);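 note: 0% = growth of cultures given vehicle only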; details: S. cerevisiae sgs1 mgt1 strain, at 50.0 µM
The panel holds about 79,000 compounds, 15% with a hit somewhere; the sample as a whole holds those more often. Activity calls are given as the source filed them. No stated cut-off is given here; in the data, active means growth inhibition above about 70%; inactive means the rest.
Select the matching outcome among active, inactive

These recorded examples may help you get a feel for the data.
{"columns": ["compound", "group"],
 "data": [
  ["CCCCCCCCCCCCCCCC[N+](C)(C)CCOC(C)=O", "active"],
  ["Cc1cc(C)c([I+]c2c(C)cc(C)cc2C)c(C)c1", "inactive"],
  ["Nc1nc2ncc(CNc3ccc(C(=O)NC(CCC(=O)NC(CCC(=O)NC(CCC(=O)NC(CCC(=O)NC(CCC(=O)O)C(=O)O)C(=O)O)C(=O)O)C(=O)O)C(=O)O)cc3)nc2c(=O)[nH]1 (stereo not given)", "inactive"],
  ["CCC(=O)c1cc([N+](=O)[O-])c(Br)s1", "active"]
]}

Turning to the following compound.
Dear colleague, could you share the recorded outcome for CN1CCc2cc3c(c4c2C1C(O)c1ccccc1-4)OCO3 (stereo not given) when you have a moment?
inactive

* * *

Recorded growth inhibition values for a group of molecules are listed next.
experiment: NCI Yeast Anticancer Drug Screen. Data for the sgs1 mgt1 strain (AID 161);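 note: 0% = growth of cultures given vehicle only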; settings: S. cerevisiae sgs1 mgt1 strain, at 50.0 µM (retest, dose inferred, filed as 5.0), hits give high values
The panel holds about 79,000 compounds, 15% with a hit somewhere; the sample as a whole holds those more often.
Give the value in % but do not write % after it.

{"columns": ["molecule", "growth inhibition / %"],
 "data": [
  ["O=C1C=CC(=O)N1c1ccc(O)cc1", 86]
]}

Next item in the queue.
Using the record for O=C(c1ccccc1)C(Br)[N+](=O)[O-] (configuration not stated) , report its growth inhibition.
100

* * *

test: NCI Yeast Anticancer Drug Screen. Data for the cln2 rad14 strain (AID 165);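 note: 0% = growth equal to vehicle treated cultures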; details: S. cerevisiae cln2 rad14 strain, at 50.0 µM
The panel holds about 79,000 compounds, 15% with a hit somewhere; the sample as a whole holds those more often. The source made the active and inactive calls. Rule as the data show it: active = growth inhibition above about 70%; inactive = the rest. Where a SMILES comes first, the peptide text is derived from it. [ ]: non-standard residue; d: D form. ξ: configuration not given here. ξD = NC(CC(=O)O)C(=O)O
Your response should consist of one outcome taken from 1 for active, -1 for inactive

Past entries and their recorded results:
{"columns": ["compound", "group"],
 "data": [
  ["COc1cccc(NC(=O)C(C#N)=C(SC)SC)c1", -1],
  ["NC(=S)Nc1ccc2c(c1)Cc1ccccc1-2", -1],
  ["CC(=O)N1CC(=O)NC1=S", -1],
  ["NC(=S)N/N=C/c1ncccc1O", -1],
  ["Cc1ccc(NC(=S)C#N)cc1Cl", -1],
  ["NCC(=O)NC(CC(=O)O)C(=O)O (stereo not drawn) (H-Gly-[ξD]-OH)", -1],
  ["c1ccc2sc(SSN3CC4CCC(CC4)C3)nc2c1", -1],
  ["Cn1ccc(=Nc2ccc(NC(=O)c3ccc(N=c4ccn(C)c5ccc([N+](=O)[O-])cc45)cc3)cc2)cc1", 1],
  ["CCCCCCCCCCCC[n+]1ccc(CCCCCCCCC)cc1", 1],
  ["CCOC(=O)c1c(C)[nH]c2ccc(O)cc12", 1]
]}

Hi, do you know how NC(=S)N/N=C\c1nccc2c(N)cccc12 came out in this test?
-1

Can you look up the reported call for Oc1ccc(Cl)cc1Cc1cc(Cl)ccc1O for me?
-1

Give the logged outcome of this assay for the following compound: CCCCCCCCc1cc(Cl)c(O)c(Cl)c1
1

* * *

test: NCI Yeast Anticancer Drug Screen. Data for the mlh1 rad18 strain (AID 175); conditions: S. cerevisiae mlh1 rad18 strain growth inhibition; at 50.0 µM; hits give high values
About 79,000 compounds went through this panel and 15% of them were active in at least one assay; those are over-represented in the sample as a whole.
Label Satisfied when growth inhibition is at or above 80%; anything below gets Not satisfied.

Solved entries:
{"columns": ["molecule", "group"],
 "data": [
  ["CC1=CC(=O)C=CC1(C)C(Cl)(Cl)Cl (stereo not drawn)", "Not satisfied"],
  ["C1=C(c2ccccc2)c2ccccc2C1", "Not satisfied"]
]}

Test whether the molecule Cc1ccc(NC(=S)C#N)cc1Cl records growth inhibition of 80% or higher.
Not satisfied

Determine whether measured growth inhibition meets or exceeds 80% for O=C/C=C/c1ccc([N+](=O)[O-])cc1
Satisfied

* * *

assay: NCI Yeast Anticancer Drug Screen. Data for the sgs1 mgt1 strain (AID 161);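 note: 0% = growth of cultures given vehicle only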; conditions: S. cerevisiae sgs1 mgt1 strain, at 50.0 µM (retest, dose inferred, filed as 5.0), hits give high values
This is part of a sample that, as a whole, favours compounds with a hit. Of some 79,000 tested, about 15% had one in any assay.
quantity measured: growth inhibition (%)
Could you give me the number in %? Just the number is fine.

Some solved entries appear below for comparison.
{"columns": ["compound", "growth inhibition, %"],
 "data": [
  ["CCCCCCCCCC(=O)CCCCCCCCC", 14],
  ["C(CCc1nn[nH]n1)CCC1CCCCC1", 95],
  ["CCCc1cc(=O)oc2c3c(c4c(c12)OC(C)(C)CC4)OC(C)[C@H](C)[C@@H]3O (stereo partly drawn)", 90],
  ["CC(C)c1ccc(C(=O)OC2CCCC2)cc1", 99],
  ["CC(=O)c1ccc2c(c1)CCc1ccccc1-2", 55]
]}

What measured growth inhibition goes with COc1cccc(N=N/C(=N\NC(=O)c2cc(Br)ccc2O)c2ccc(N(CCC#N)CCC#N)cc2OC)c1 ?
34

Could you share which growth inhibition value was measured for Oc1ccc(/C=C/c2ccc(Cl)cc2)cc1 ?
97

I am curious: what growth inhibition value has been reported for COc1cc(N(CCC#N)CCC#N)ccc1/C(N=Nc1ccc(C(=O)O)cc1)=N/NC(=O)c1cc(Br)ccc1O ?
20

Reported growth inhibition for CCCOS(=O)(=O)c1ccccc1 : what is it?
4

If you can, please state the reported growth inhibition value of Nc1c(N)c(Cl)c(Cl)c(Cl)c1Cl .
96

Reported growth inhibition, compound CCOc1ccc(C(C[N+](=O)[O-])Sc2ccccc2N)cc1 (stereo not drawn) : ____
57

Report growth inhibition for O=[N+]([O-])c1cc(-c2ccccc2)c(O)c([N+](=O)[O-])c1 please.
71

Need growth inhibition, item CCCCCCCCc1cc(Cl)c(O)c(Cl)c1
98

Given CC(C)N=C(N)/N=C(\N)Nc1ccc2ccc3ccccc3c2c1 , state its recorded growth inhibition.
100

Any idea what growth inhibition was measured for [Cl-].[Rh+3].c1ccc(-c2ccnc3c2ccc2c(-c4ccccc4)ccnc23)cc1.c1ccc(-c2ccnc3c2ccc2c(-c4ccccc4)ccnc23)cc1.c1ccc(-c2ccnc3c2ccc2c(-c4ccccc4)ccnc23)cc1 ?
87

Fill in the blank: the reported growth inhibition of CCCCOS(=O)(=O)c1ccccc1 is ____.
1

Can you look up the measured growth inhibition of CN(C)c1ccc2cc3c(cc2c1)Oc1ccccc1N3.[Cl][Zn][Cl] for me?
94

Quick one: growth inhibition for CC(C)NC(=O)C(C)O (stereo not drawn) ?
5

Please give the measured growth inhibition for this compound: N#CC(=C1SCS1)[N+](=O)[O-]
100
